Please respond with reported protein stability index for every item in the list.
B1: ACSBG2 (parent)
chain: TPMTIPEFFRESVNRFGTYPALAS

- Variants of: B1
- test_summary: protein stability index of a GFP-peptide fusion (GPS, HEK-293T) (PSI 1-6); higher = more stable;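 further: lentivirally expressed fusions sorted by FACS into six bins by GFP to DsRed ratio, PSI derived from sequencing read proportions per bin multiplied by bin number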
- settings: c terminus: a fixed tail appended
Give bare numbers.

Example results:
A21L :: 1.77
T1L :: 2.08

Answer for every listed entry: what is its protein stability index? The entries follow.
1. M3V
2. P6V
3. E7W
4. T4V
5. N14I

Output:
[2.11, 1.41, 1.74, 3.26, 1.83]
